# key: entry, value: growth inhibition
# Test Summary: NCI Yeast Anticancer Drug Screen. Data for the sgs1 mgt1 strain (AID 161);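 also: 0% = growth of cultures given vehicle only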
# Condition Info: S. cerevisiae sgs1 mgt1 strain, at 5.0 µM (retest, dose inferred, filed as 0.5), hits give high values
About 79,000 compounds went through this panel and 15% of them were active in at least one assay; those are over-represented in the sample as a whole.
The reply should be a number in %, with the unit left off.

# example entries with known answers
Compound	Quantity Name	Recorded Result
Cc1ccc(SSCCCCS(=O)O)cc1	growth inhibition	5
C=C1C(=O)OC2CC(C)C3C=CC(=O)C3CC12 (configuration not stated)	growth inhibition	15
Nc1ccccc1N=Cc1ccccc1O	growth inhibition	-8
S=C(Nc1ccc(Br)c(Cl)c1)SCc1ccc2c(c1)OCO2	growth inhibition	77
O=S(=O)(Nc1ccccc1)c1ccccc1C=C(c1ccccc1)c1ccccc1	growth inhibition	46

Could you now look at the following compound, please?
Supply reported growth inhibition belonging to this compound: N#CC(Cc1ccc(CC(C#N)(c2ccccc2)c2ccccn2)cc1)(c1ccccc1)c1ccccn1 (configuration not stated)
-4
